Numbers sourced from patent US20100129369A1.

# target: human c-Met (human, UniProt P08581 25-1390)
# Sequence (P08581 25-1390): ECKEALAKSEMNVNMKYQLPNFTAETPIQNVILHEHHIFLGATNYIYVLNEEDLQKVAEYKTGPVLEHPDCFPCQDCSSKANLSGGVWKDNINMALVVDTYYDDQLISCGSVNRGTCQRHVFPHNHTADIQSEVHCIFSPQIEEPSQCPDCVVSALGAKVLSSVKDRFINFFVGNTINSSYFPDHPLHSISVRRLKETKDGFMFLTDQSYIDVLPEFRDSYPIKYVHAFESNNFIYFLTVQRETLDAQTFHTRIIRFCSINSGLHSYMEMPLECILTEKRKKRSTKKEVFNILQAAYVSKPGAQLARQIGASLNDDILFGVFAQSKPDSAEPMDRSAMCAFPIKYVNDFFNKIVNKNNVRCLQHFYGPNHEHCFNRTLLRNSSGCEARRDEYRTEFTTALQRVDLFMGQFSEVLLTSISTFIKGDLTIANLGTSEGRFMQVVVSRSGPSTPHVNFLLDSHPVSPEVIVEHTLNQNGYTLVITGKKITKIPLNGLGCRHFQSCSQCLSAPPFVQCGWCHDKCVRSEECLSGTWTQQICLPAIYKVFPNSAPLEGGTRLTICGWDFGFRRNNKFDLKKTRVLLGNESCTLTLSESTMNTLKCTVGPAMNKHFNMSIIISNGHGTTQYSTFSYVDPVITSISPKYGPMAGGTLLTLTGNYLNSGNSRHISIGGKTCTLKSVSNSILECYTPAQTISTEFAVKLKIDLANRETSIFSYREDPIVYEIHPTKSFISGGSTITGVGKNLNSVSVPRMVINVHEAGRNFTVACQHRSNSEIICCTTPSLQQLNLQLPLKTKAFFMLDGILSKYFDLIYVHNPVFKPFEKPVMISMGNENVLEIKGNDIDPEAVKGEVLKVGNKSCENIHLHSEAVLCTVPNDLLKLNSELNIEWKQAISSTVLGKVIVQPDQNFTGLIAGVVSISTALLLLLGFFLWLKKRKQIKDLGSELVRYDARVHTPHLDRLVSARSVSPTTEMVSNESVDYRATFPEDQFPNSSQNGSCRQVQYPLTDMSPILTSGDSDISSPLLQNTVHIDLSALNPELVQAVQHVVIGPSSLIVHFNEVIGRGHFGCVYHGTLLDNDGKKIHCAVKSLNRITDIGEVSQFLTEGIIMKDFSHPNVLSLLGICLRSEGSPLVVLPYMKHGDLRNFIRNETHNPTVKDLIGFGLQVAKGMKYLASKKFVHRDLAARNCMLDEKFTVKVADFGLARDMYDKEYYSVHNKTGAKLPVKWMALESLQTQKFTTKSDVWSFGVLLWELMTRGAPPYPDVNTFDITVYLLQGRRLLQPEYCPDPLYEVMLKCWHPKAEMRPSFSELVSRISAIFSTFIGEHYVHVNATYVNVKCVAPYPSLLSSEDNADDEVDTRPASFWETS
# test-name: cell-based or functional assay
experimental-readout: AVG CPM, 3H-thymidine incorporation in MKN45 cells, Ab 92.6 ng/mL
Be sure to follow the number with its unit.

IN: Entry D11-C27G3 (antibody, human IgG2, kappa, V domains shown, Human engineered IgG2 kappa c-Met antibody; also called D11-27G3; D11-C27G3 IgG2) VH: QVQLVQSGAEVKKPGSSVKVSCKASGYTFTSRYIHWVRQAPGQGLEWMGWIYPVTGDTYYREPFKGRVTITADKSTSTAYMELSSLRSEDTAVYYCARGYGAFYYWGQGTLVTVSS VL: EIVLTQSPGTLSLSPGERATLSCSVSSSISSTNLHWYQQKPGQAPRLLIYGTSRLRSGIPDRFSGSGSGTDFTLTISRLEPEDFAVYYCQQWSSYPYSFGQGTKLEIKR has what AVG CPM, 3H-thymidine incorporation in MKN45 cells, Ab 92.6 ng/mL?
OUT: 14600 CPM
